- System: HL-60
- TEST_DESCRIPTION: cell viability (% survival relative to DMSO control); higher = less cytotoxic
- MEASUREMENT_CONTEXT: 1 µM; 72 h; co-treatment: DMSO vehicle
MEASURED_PROPERTY: cell viability (%)

RECORD_SMILES: O[C@H]1[C@H](O)[C@@H](O)CN2CC[C@H](O)[C@H]12
RESULT_VALUE: 98.7

RECORD_SMILES: O=C(Cc1cccc(OC(F)(F)F)c1)Nc1ccc(CCCCc2nnc(NC(=O)Cc3ccccn3)s2)nn1
RESULT_VALUE: 93.6

RECORD_SMILES: O=NN(CCCl)C(=O)NCCCl
RESULT_VALUE: 97.8

RECORD_SMILES: Cc1cc(O)c2c(c1)C(=O)c1cc(O)cc(O)c1C2=O
RESULT_VALUE: 103

---

- Tested on: myeloid leukemia patient primary cells Pat.12
- TEST_DESCRIPTION: cell viability (% survival relative to DMSO control); higher = less cytotoxic
- MEASUREMENT_CONTEXT: 1 nM; 72 h
MEASURED_PROPERTY: cell viability (%)

COMPOUND: c1ccc2c(c1)SCc1c-2[nH]c2ccccc12
MEASURED_PROPERTY: cell viability
UNIT_STRING: %
RESULT_VALUE: 96.4

COMPOUND: O=C(/C=C/c1cccnc1)NCCCCC1CCN(C(=O)c2ccccc2)CC1 [Daporinad]
MEASURED_PROPERTY: cell viability
UNIT_STRING: %
RESULT_VALUE: 91.5

COMPOUND: Cc1nnc(-c2ccc(N3CCC(Oc4ccccc4C(F)(F)F)CC3)nn2)s1 [MF-438]
MEASURED_PROPERTY: cell viability
UNIT_STRING: %
RESULT_VALUE: 99.4

COMPOUND: O=C(Oc1cccc(F)c1OC(=O)c1cccc(O)c1)c1cccc(O)c1 [WZB117]
MEASURED_PROPERTY: cell viability
UNIT_STRING: %
RESULT_VALUE: 98.4

COMPOUND: Nc1ccn([C@@H]2O[C@H](CO)[C@@H](O)C2(F)F)c(=O)n1 [Gemcitabine]
MEASURED_PROPERTY: cell viability
UNIT_STRING: %
RESULT_VALUE: 96.3

---

The reader will find reported cell viability values listed item by item below.
- Test system: myeloid leukemia patient primary cells Pat.1
- TEST_DESCRIPTION: cell viability (% survival relative to DMSO control); higher = less cytotoxic
- MEASUREMENT_CONTEXT: 100 nM; 72 h
Counter-ions that a name gives are not always drawn.
MEASURED_PROPERTY: cell viability (%)

COMPOUND: CCn1c(=O)/c(=C2\Sc3ccccc3N2C)s/c1=C\c1cccc[n+]1CC.[Cl-] [MKT-077]
COMPARISON_SIGN: =
RESULT_VALUE: 99.5

COMPOUND: CCCCCCCCCCCCC/C=C/[C@@H](O)[C@H](CO)N(C)C [N,N-Dimethylsphingosine]
COMPARISON_SIGN: =
RESULT_VALUE: 79.6

COMPOUND: O=C(CCl)N(CCCNC(=O)C(F)(F)F)c1ccc([N+](=O)[O-])cc1 [ML-175]
COMPARISON_SIGN: =
RESULT_VALUE: 67.8

COMPOUND: O=C(Cc1cccc(OC(F)(F)F)c1)Nc1ccc(CCCCc2nnc(NC(=O)Cc3ccccn3)s2)nn1 [CB-839]
COMPARISON_SIGN: =
RESULT_VALUE: 46.7

COMPOUND: Cc1nnc(-c2ccc(N3CCC(Oc4ccccc4C(F)(F)F)CC3)nn2)s1 [MF-438]
COMPARISON_SIGN: =
RESULT_VALUE: 97.1

COMPOUND: CC(C)(Cc1ccccc1)NCC(O)c1ccc(O)c(NS(C)(=O)=O)c1 (configuration not stated) [Zinterol hydrochloride]
COMPARISON_SIGN: =
RESULT_VALUE: 98.6

COMPOUND: O=C(c1c2ccccc2cc2ccccc12)N1CCC(N2CCC[C@@H](C(=O)N3CCOCC3)C2)CC1
COMPARISON_SIGN: >
RESULT_VALUE: 100

---

- Test system: myeloid leukemia patient primary cells Pat.10
- TEST_DESCRIPTION: cell viability (% survival relative to DMSO control); higher = less cytotoxic
- MEASUREMENT_CONTEXT: 10 nM; 72 h
MEASURED_PROPERTY: cell viability (%)

MOLECULE: c1ccc2c(c1)SCc1c-2[nH]c2ccccc12
RESULT_VALUE: 59.9
//
MOLECULE: O=C(CCl)N(CCCNC(=O)C(F)(F)F)c1ccc([N+](=O)[O-])cc1 [ML-175]
RESULT_VALUE: 93.1
//
MOLECULE: Fc1ccc(CNc2ncnc3ccc(F)cc23)cc1 [Spautin 1]
RESULT_VALUE: 15.3
//
MOLECULE: Oc1ncc(F)c(O)n1 [5-fluorouracil]
RESULT_VALUE: 78.1

---

- System: SHI-1
- TEST_DESCRIPTION: cell viability (% survival relative to DMSO control, bortezomib = 0%); higher = less cytotoxic
- MEASUREMENT_CONTEXT: 1000 nM; 72 h
The reader will find reported cell viability values listed item by item below.

COMPOUND: CC(C)c1ccc2c(c1)c(SC(C)(C)C)c(CC(C)(C)C(=O)O)n2Cc1ccc(Cl)cc1 [MK-886]
cell viability (%): 93.2
//
COMPOUND: OCC(CO)N[C@H]1C[C@](O)(CO)[C@@H](O)[C@H](O)[C@H]1O [Voglibose]
cell viability (%): 96
//
COMPOUND: O=C(CCl)N(CCCNC(=O)C(F)(F)F)c1ccc([N+](=O)[O-])cc1 [ML175]
cell viability (%): 107
//
COMPOUND: C#CCN[C@@H]1CCc2ccccc21 [Rasagiline]
cell viability (%): 95.3
//
COMPOUND: NC(CCC(=O)NC(CSCc1ccc(Br)cc1)C(=O)NCC(=O)OC1CCCC1)C(=O)OC1CCCC1 (centres undefined) [S-para-Bromobenzylglutathione cyclopentyl diester]
cell viability (%): 91.3
//
COMPOUND: N[C@@H](CCC(=O)N[C@@H](CS)C(=O)NCC(=O)O)C(=O)O [Glutathione]
cell viability (%): 97.5
//
COMPOUND: O=C(Cc1cccc(OC(F)(F)F)c1)Nc1ccc(CCCCc2nnc(NC(=O)Cc3ccccn3)s2)nn1 [CB-839]
cell viability (%): 74.9
//
COMPOUND: CCCCCCCNC=O [N-Heptyl-Formamide]
cell viability (%): 114
//
COMPOUND: OCCN1C[C@H](O)[C@@H](O)[C@H](O)[C@H]1CO [Miglitol]
cell viability (%): 92.8

---

The reader will find reported cell viability values listed item by item below.
- Test system: BV-173
- TEST_DESCRIPTION: cell viability (% survival relative to DMSO control, bortezomib = 0%); higher = less cytotoxic
- MEASUREMENT_CONTEXT: 10 nM; 72 h

COMPOUND: CC(=O)N1CCN(c2ccc(OC[C@@H]3CO[C@@](Cn4ccnc4)(c4ccc(Cl)cc4Cl)O3)cc2)CC1 (racemic) [Ketoconazole]
UNIT_STRING: %
cell viability: 78.3

COMPOUND: O[C@H]1[C@H](O)[C@@H](O)CN2CC[C@H](O)[C@H]12 [Castanospermine]
UNIT_STRING: %
cell viability: 105

COMPOUND: CC(C)(CCCCCCCCCCC(C)(C)CC(=O)O)CC(=O)O [MEDICA 16]
UNIT_STRING: %
cell viability: 89.4

COMPOUND: NCc1ccc(-c2cccnc2)s1 [(5-Pyrid-3-YLTHIEN-2-YL)METHYLAMINE]
UNIT_STRING: %
cell viability: 102

COMPOUND: CN(C)CCNC(=O)c1cccn2c(=O)c3cc4ccccc4cc3nc12 [Bmh-21]
UNIT_STRING: %
cell viability: 98.6

COMPOUND: O=[As]O[As]=O (centres undefined) [Arsenic trioxide]
UNIT_STRING: %
cell viability: 97.2

COMPOUND: N#Cc1ccc(C2CCCc3cncn32)cc1 (centres undefined) [Fadrozole]
UNIT_STRING: %
cell viability: 95.3

COMPOUND: Nc1nc(O)c2c(CCc3ccc(C(=O)N[C@@H](CCC(=O)O)C(=O)O)cc3)c[nH]c2n1 [Pemetrexed]
UNIT_STRING: %
cell viability: 91.9

COMPOUND: CC(C)c1ccc2c(c1)c(SC(C)(C)C)c(CC(C)(C)C(=O)O)n2Cc1ccc(Cl)cc1 [MK-886]
UNIT_STRING: %
cell viability: 89.6

COMPOUND: Fc1ccc(CNc2ncnc3ccc(F)cc23)cc1 [Spautin 1]
UNIT_STRING: %
cell viability: 96.8

COMPOUND: CCCCCCCNC=O [N-Heptyl-Formamide]
UNIT_STRING: %
cell viability: 98.3

COMPOUND: O=C(/C=C/c1cccnc1)NCCCCC1CCN(C(=O)c2ccccc2)CC1 [Daporinad]
UNIT_STRING: %
cell viability: 1.15

COMPOUND: N=C(N)c1ccc(N=NNc2ccc(C(=N)N)cc2)cc1 [Diminazene]
UNIT_STRING: %
cell viability: 103

COMPOUND: N[C@@H](CCC(=O)N[C@@H](CS)C(=O)NCC(=O)O)C(=O)O [Glutathione]
UNIT_STRING: %
cell viability: 99.4

COMPOUND: O=c1[nH]c(=O)n([C@H]2C[C@H](O)[C@@H](CO)O2)cc1I [Idoxuridine]
UNIT_STRING: %
cell viability: 86.7

COMPOUND: NS(=O)(=O)c1ccc(NC(=O)Cc2ccccc2)cc1 [4-(2-Phenylacetamido)Benzenesulfonamide]
UNIT_STRING: %
cell viability: 94.8

COMPOUND: C#CCN[C@@H]1CCc2ccccc21 [Rasagiline]
UNIT_STRING: %
cell viability: 104

COMPOUND: CNC(=C[N+](=O)[O-])NCCSCc1ccc(CN(C)C)o1 [Ranitidine]
UNIT_STRING: %
cell viability: 96.1

COMPOUND: c1ccc2c(c1)SCc1c-2[nH]c2ccccc12
UNIT_STRING: %
cell viability: 113
